melting point values, listed per item
Structures can show the parent of a compound that is named as a salt.
Value Kind: melting point

# Molecule, Value
data = [
    ("Cn1c(=O)c2cc(F)c(N3CC(O)C3)cc2n2nc(-c3ccnc(C(F)(F)F)c3)cc12", "> 250 °C"),
    ("CCc1cc(-c2cc3n(C)c(=O)c4ccccc4n3n2)ccn1.Cl", "> 250 °C"),
    ("COc1ccc2c(c1)c(=O)n(C)c1cc(-c3ccnc(C(F)(F)F)c3)nn21", "201 to 205 °C"),
    ("Cn1c(=O)c2ccc(F)cc2n2nc(-c3ccnc(C(F)(F)F)c3)cc12", "> 250 °C"),
    ("COc1cc(-c2cc3n(C)c(=O)c4ccccc4n3n2)ccn1", "> 250 °C"),
    ("Cc1ccc2c(c1)c(=O)n(C)c1cc(-c3ccnc(C(F)(F)F)c3)nn21", "215 to 218 °C"),
    ("Cn1c(=O)c2ccc(C(N)=O)cc2n2nc(-c3ccnc(C(F)(F)F)c3)cc12", "> 250 °C"),
    ("Cn1c(=O)c2ccc(N3CCC(O)CC3)cc2n2nc(-c3ccnc(C(F)(F)F)c3)cc12", "112 to 117 °C"),
    ("Cn1c(=O)c2ccc(C(=O)N3CCOCC3)cc2n2nc(-c3ccnc(C(F)(F)F)c3)cc12", "> 250 °C"),
    ("Cn1c(=O)c2ccc(C(=O)O)cc2n2nc(-c3ccnc(C(F)(F)F)c3)cc12", "> 250 °C"),
    ("CCn1c(=O)c2ccccc2n2nc(-c3ccnc(C(F)(F)F)c3)cc12", "214 to 220 °C"),
    ("CC(C)Oc1cc(-c2cc3n(C)c(=O)c4ccccc4n3n2)ccn1", "173 to 176 °C"),
    ("Cn1c(=O)c2ccc(N3CCOCC3)cc2n2nc(-c3ccnc(C(F)(F)F)c3)cc12", "> 250 °C"),
    ("Cn1c(=O)c2ccc(C3CC3)cc2n2nc(-c3ccnc(C(F)(F)F)c3)cc12", "> 250 °C"),
    ("CNc1ccc2c(c1)c(=O)n(C)c1cc(-c3ccnc(C(F)(F)F)c3)nn21", "> 250 °C"),
    ("Cn1c(=O)c2ccccc2n2nc(-c3ccnc(OCC4CC4)c3)cc12", "185 to 189 °C"),
    ("CCCc1cc(-c2cc3n(C)c(=O)c4ccccc4n3n2)ccn1.Cl", "> 250 °C"),
    ("COc1ccc2c(c1)c(=O)n(C)c1cc(-c3ccnc(C4CC4)c3)nn21 (as salt: HCl)", "230 to 240 °C"),
    ("Cn1c(=O)c2ccccc2n2nc(-c3ccnc(C(F)F)c3)cc12", "192 to 196 °C"),
    ("Cn1c(=O)c2ccc(F)cc2n2nc(-c3ccnc(C4CCC4)c3)cc12", "210 to 220 °C"),
    ("Cn1c(=O)c2cc(F)c(NCCC#N)cc2n2nc(-c3ccnc(C(F)(F)F)c3)cc12", "> 250 °C"),
    ("Cn1c(=O)c2ccc(N3CCC(CO)CC3)cc2n2nc(-c3ccnc(C(F)(F)F)c3)cc12", "205 to 210 °C"),
    ("COc1ccc2c(c1)c(=O)n(C)c1cc(-c3ccnc(OCC(F)(F)F)c3)nn21", "172 to 180 °C"),
    ("Cn1c(=O)c2ccccc2n2nc(-c3ccnc(OCC(C)(F)F)c3)cc12", "189 to 191 °C"),
    ("CN(C)c1ccc2c(=O)n(C)c3cc(-c4ccnc(C(F)(F)F)c4)nn3c2c1", "> 250 °C"),
    ("Cn1c(=O)c2ccccc2n2nc(-c3ccnc(OCC(F)(F)F)c3)cc12", "219 to 223 °C"),
    ("COc1cc2c(=O)n(C)c3cc(-c4ccnc(C(F)(F)F)c4)nn3c2cc1F", "220 to 230 °C"),
    ("Cn1c(=O)c2ccccc2n2nc(-c3ccnc(OC(C(F)(F)F)C(F)(F)F)c3)cc12", "188 to 194 °C"),
    ("Cn1cc(-c2cc3n(C)c(=O)c4ccccc4n3n2)cn1", "195 to 199 °C"),
    ("Cn1c(=O)c2ccc(N3CCC(O)CC3)cc2n2nc(-c3ccnc(C4CC4)c3)cc12", "221 to 233 °C"),
    ("Cc1ccc2c(=O)n(C)c3cc(-c4ccnc(C(F)(F)F)c4)nn3c2c1", "> 250 °C"),
    ("Cn1c(=O)c2cc(F)ccc2n2nc(-c3ccnc(C(F)(F)F)c3)cc12", "> 250 °C"),
    ("CC(=O)Nc1ccc2c(c1)c(=O)n(C)c1cc(-c3ccnc(C(F)(F)F)c3)nn21", "> 250 °C"),
    ("Cn1c(=O)c2ccc(F)cc2n2nc(-c3ccnc(C4CC4)c3)cc12", "230 to 235 °C"),
    ("Cc1cnccc1-c1cc2n(C)c(=O)c3ccccc3n2n1", "145 to 150 °C"),
]
